Provenance of the data: the supplement of paper PMC9694430

Tested on: LOC_OS02G08530-cb003;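 note: purified Escherichia coli-expressed rice kinase domain construct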
MEASUREMENT NOTES: thermal shift delta Tm vs DMSO control; higher = stronger stabilization (binding)
EXPERIMENTAL PARAMETERS: 12.5 µM; protein concentration 2 µM

{"MOLECULE": "CNC(=O)c1nn(C)c2c1C(C)(C)Cc1cnc(Nc3ccc(N4CCN(C)CC4)cc3)nc1-2", "thermal shift delta Tm": "1.93 °C"}
{"MOLECULE": "O=C1Nc2ccccc2/C1=C1/Nc2ccccc2C1=O", "thermal shift delta Tm": "1.85 °C"}
{"MOLECULE": "O=C1Nc2ccc(CN3C(=O)CSC3=O)cc2/C1=C/c1cc(CN2CCOCC2)c[nH]1", "thermal shift delta Tm": "2.55 °C"}
{"MOLECULE": "C#Cc1cccc(Nc2ncnc3cc(OCCOC)c(OCCO)cc23)c1", "thermal shift delta Tm": "1.16 °C"}
{"MOLECULE": "COc1ccc(COc2cc3oc(=O)c4cc(C(C)O)ccc4c3cc2OC)cc1 (stereo not given)", "thermal shift delta Tm": "1.87 °C"}
{"MOLECULE": "C=C[C@@](C)(/C=C/c1ccc(O)cc1)CCC=C(C)C", "thermal shift delta Tm": "0.6 °C"}
{"MOLECULE": "Cc1ccccc1CN1C2=NCCN2C(=O)C2=C1CCN(Cc1ccccc1)C2", "thermal shift delta Tm": "1.02 °C"}
{"MOLECULE": "CCc1cncnc1N1CCN(Cc2nc3ccc(C(F)(F)F)cc3[nH]2)CC1", "thermal shift delta Tm": "0.49 °C"}
{"MOLECULE": "CO[C@H]1CC[C@H](N2C(=O)CNc3ncc(-c4ccc(C(C)(C)O)nc4)nc32)CC1", "thermal shift delta Tm": "0.65 °C"}
{"MOLECULE": "Cc1cc(Nc2cc(N3CCN(C)CC3)nc(Sc3ccc(NC(=O)C4CC4)cc3)n2)n[nH]1", "thermal shift delta Tm": "2.4 °C"}
